Quick list: pEC50 per entry.
target: TLR7 (Homo sapiens); construct: human HEK-Blue cells co-expressing a TLR7 or TLR8 gene; assay: In vitro human TLR7 binding reporter assay (HEK-Blue, NF-kB/AP1-inducible SEAP); type: cell-based; settings: activity range class, read-out: TLR7 Agonist EC50
Sequence (Q9NYK1 27-1049): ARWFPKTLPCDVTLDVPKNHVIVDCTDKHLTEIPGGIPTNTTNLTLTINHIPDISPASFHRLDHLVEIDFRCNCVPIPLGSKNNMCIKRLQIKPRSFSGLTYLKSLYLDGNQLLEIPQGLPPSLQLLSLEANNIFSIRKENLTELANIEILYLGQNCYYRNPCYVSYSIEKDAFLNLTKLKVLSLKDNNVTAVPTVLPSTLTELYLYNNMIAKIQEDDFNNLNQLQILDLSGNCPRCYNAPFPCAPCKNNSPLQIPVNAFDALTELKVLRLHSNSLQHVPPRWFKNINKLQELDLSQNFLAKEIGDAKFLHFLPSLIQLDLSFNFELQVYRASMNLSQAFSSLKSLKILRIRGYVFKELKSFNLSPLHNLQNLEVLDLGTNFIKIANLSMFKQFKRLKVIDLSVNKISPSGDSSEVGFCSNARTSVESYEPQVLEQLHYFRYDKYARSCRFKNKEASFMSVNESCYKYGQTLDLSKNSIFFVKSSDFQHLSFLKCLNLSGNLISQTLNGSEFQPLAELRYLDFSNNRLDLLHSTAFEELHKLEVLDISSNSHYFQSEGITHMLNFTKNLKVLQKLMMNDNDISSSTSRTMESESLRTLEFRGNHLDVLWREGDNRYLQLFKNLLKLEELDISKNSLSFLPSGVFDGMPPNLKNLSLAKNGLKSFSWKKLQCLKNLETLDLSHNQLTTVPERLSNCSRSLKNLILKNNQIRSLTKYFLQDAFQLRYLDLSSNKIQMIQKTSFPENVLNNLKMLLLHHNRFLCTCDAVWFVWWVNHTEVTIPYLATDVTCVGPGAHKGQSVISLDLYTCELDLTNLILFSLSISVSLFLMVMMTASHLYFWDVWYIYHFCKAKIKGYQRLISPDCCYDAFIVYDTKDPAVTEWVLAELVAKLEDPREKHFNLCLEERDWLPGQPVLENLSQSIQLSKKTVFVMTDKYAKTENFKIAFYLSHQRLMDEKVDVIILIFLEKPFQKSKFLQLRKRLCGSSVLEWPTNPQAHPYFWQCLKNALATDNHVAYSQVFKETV
pEC50: −log10 of the molar value.

NCCCc1nc2c(N)nc3cc(-c4ccn[nH]4)ccc3c2s1 | < 4.00
Cc1nc(C(=O)NCCn2cc3c(n2)c(N)nc2cc(-c4cc[nH]n4)ccc23)co1 | < 4.00
Nc1nc2cc(-c3cc[nH]n3)ccc2c2c1cnn2CCO | < 4.00

Let us move to another entry and its pEC50.
Lookup: // returns reported pEC50 for input N#CC1(C(=O)NCCn2cc3c(N)nc4cc(-c5cc[nH]n5)ccc4c3n2)CC1
Found: < 4.00

---

Entries and their measured log10(EC50) follow.
test system: THP-1 cells; assay: Measurement of IL-1β production, hTRF protocol (second alternative procedure), THP-1 cells; format: cell-based, human; conditions: Homo sapiens, THP-1, IL-1β production, human; read-out: NLRP3 hILIB EC50
Recall that a logarithmic scale is used here: each number is log10 of EC50 in nM.

For orientation, consider the following solved cases.
CN(C)Cc1nc2c(N)nc3cc(-c4ccn[nH]4)ccc3c2s1 | 2.60
Nc1nc2cc(-c3cc[nH]n3)ccc2c2cn(CCNC(=O)c3csc(Cl)n3)nc12 | 2.11
CN(C)CCCn1cc2c(n1)c(N)nc1cc(-c3cc[nH]n3)ccc12 | 2.80
CN1CCOC(C(=O)NCCn2cc3c(n2)c(N)nc2cc(-c4cc[nH]n4)ccc23)C1 (single isomer, unassigned) | 4.41
COCCn1cc2c(N)nc3cc(-c4cc[nH]n4)ccc3c2n1 | 2.15

# evaluate next
Lookup: log10(EC50) lookup needed for CC(C)(O)CCn1cc2c(N)nc3cc(-c4ccn[nH]4)ccc3c2n1 , thanks.
Found: 2.80

---

test system: THP-1 cells; experiment: Measurement of IL-1β production, hTRF protocol (second alternative procedure), THP-1 cells; assay type: cell-based, human; details: Homo sapiens, THP-1, read-out: NLRP3 hILIB EC50
Below, each entry is listed with its recorded pEC50.
Please express pEC50 as -log10 of the molar concentration.

Nc1nc2cc(-c3cc[nH]n3)ccc2c2cn(CCNC(=O)Oc3ccccc3)nc12 [Example 117] | 6.24
CCN(CCn1cc2c(n1)c(N)nc1cc(-c3cc[nH]n3)ccc12)C(C)=O [Example 29] | 5.22
CN(CCn1cc2c(n1)c(N)nc1cc(-c3cc[nH]n3)ccc12)Cc1ccccc1 [Example 121] | 6.07
CN(C)C(=O)NCCn1cc2c(n1)c(N)nc1cc(-c3cc[nH]n3)ccc12 [Example 116] | 5.13
Nc1nc2cc(-c3cc[nH]n3)ccc2c2cn(CCCNC(=O)c3ccccc3)nc12 [Example 123] | 5.04
Nc1nc2cc(-c3cc[nH]n3)ccc2c2cn(CCNS(=O)(=O)c3ccccc3)nc12 [Example 114] | 5.32

Lookup: Fill blank: measured pEC50 of the compound CC(CO)n1cc2c(N)nc3cc(-c4ccn[nH]4)ccc3c2n1 (centres unmarked) [Example 253] is ____.
Found: 6.52

Lookup: // returns reported pEC50 for input Nc1nc2cc(-c3ccn[nH]3)ccc2c2oc(CCCO)nc12 [Example 147]
Found: 5.22

Lookup: Could you share which pEC50 value was measured for CN(CCn1cc2c(n1)c(N)nc1cc(-c3cc[nH]n3)ccc12)C(=O)c1ccccc1 [Example 120] ?
Found: 5.73

Lookup: Reported pEC50, compound Nc1nc2cc(-n3cccn3)ccc2c2cn(CCNC(=O)c3ccccc3)nc12 [Example 132] : ____
Found: 6.47

Lookup: # get_value(readout='pEC50', item= Nc1nc2cc(-c3cc[nH]n3)ccc2c2cn(CCN3CCOCC3)nc12 [Example 20] )
Found: 5.97
